- System: TK-10
- TEST NAME: NCI tumour cell line growth inhibition, 48 h
Calls of active or inactive are those of the source. Rule as the data show it: active = GI50 up to about 1.1 µM and inactive = higher.
Provide the reported GI50 of each item.

So what's the measured GI50 for this one? `Cc1ccc2[nH]c3c(c(=O)n(C)c(=O)n3C)c2c1` > 100 µM (inactive)

Form field: reported GI50 of `CN(C)CCCn1c(-c2cc(C(C)(C)C)c(O)c(C(C)(C)C)c2)cs/c1=N\c1ccccc1` 1.95 µM (inactive)

Name the recorded GI50 for NC(CSS(=O)(=O)c1ccccc1)C(=O)O (stereo not given) . > 10 µM (inactive)

What measured GI50 goes with `COC(=O)C1=C(c2cc(OC)c(OC)c(OC)c2)O[C@H](c2ccc3c(c2)OCO3)[C@H]1COC(C)=O` ? 39.2 µM (inactive)

// returns reported GI50 for input `Cc1ncc([N+](=O)[O-])n1CCNC(=O)CCCn1ccnc1[N+](=O)[O-]` > 100 µM (inactive)

Can you share its GI50? I mean this compound: CC(CC[C@@H](O)C(C)(C)O)C1[C@@H](O)CC2(C)C3CC(O)C4C(C)(C)[C@@H](OC5OC(CO)C(O)C(O)C5O)CC[C@@]45C[C@@]35CC[C@]12C (stereo not given in full) > 10 µM (inactive)

If you can, please state the reported GI50 value of `Oc1[nH]c(Nc2cc(Cl)cc(Cl)c2)nc2ncnc1-2` . > 75 µM (inactive)

Param item = COC(OC)[C@@H](C)[C@H](O)[C@](C)(O)C1OC(C)(C)OC(C(C)C=C(C)C)C1C (stereo not given in full) ; retrieve measured GI50. > 100 µM (inactive)

Which measured GI50 value corresponds to `Cn1c(=O)nc2n(CCO)c(-c3ccccc3)c(-c3ccccc3)nc-2c1=O` ? > 100 µM (inactive)

Item under review: COC(=O)c1cn(CC(O)CCl)nn1 (stereo not given) . Reported GI50? > 100 µM (inactive)

----------
- Test system: CAKI-1
- TEST NAME: NCI tumour cell line growth inhibition, 48 h
Activity calls are given as the source filed them. Cut-off read from the data, not from the text of the source: active = GI50 up to about 1.1 µM and inactive = higher. Non-standard residues stand in square brackets, D forms with d. Residues, ends and D or L forms follow the SMILES beside them. Ava = NCCCCC(=O)O; Mpa = O=C(O)CCS
ASSAY METRIC: GI50

Any idea what GI50 was measured for COc1cc2c(cc1OC)C13CCN4C=C5CCOC6CC(=O)N2C1C6C5CC43 (stereo not drawn) ? > 100 µM (inactive)

Data request, read-out GI50, for CC(NC(=O)CCS)C(=O)NC(C)C(=O)NC(Cc1c[nH]c2ccccc12)C(=O)NC(Cc1c[nH]cn1)C(=O)NC(CO)C(=O)NC(Cc1c[nH]c2ccccc12)C(=O)NCCCCC(=O)NC(C)C(=O)NC(CCC(N)=O)C(=O)NC(CCCCN)C(=O)NC(C)C(=O)NC(CCCNC(=N)N)C(=O)NC(CCCCN)C(N)=O (stereo not drawn) ([Mpa]AAWHSW[Ava]AQKARK-NH2; configuration not given here) 44.2 µM (inactive)

// query GI50 value for entry `CC(=O)Nn1c(Cc2ccc(Cl)cc2)nn(C)c1=O` > 100 µM (inactive)

----------
- Tested on: CCRF-CEM
- TEST NAME: NCI tumour cell line growth inhibition, 48 h
The source made the active and inactive calls. Cut-off read from the data, not from the text of the source: active = GI50 up to about 1.1 µM and inactive = higher.
Please answer using one outcome listed in active, inactive

So what was the verdict on CC(C)(C)COC(=O)C(C)(C)NC(=O)C(CC(=O)OCc1ccccc1)NC(=O)OCc1ccccc1 (stereo unspecified) in this test? inactive

Query: recorded result category for Cc1cc(CC(O)c2ccc(Cl)c(Cl)c2)nc(O)n1 (stereo unspecified) in this test inactive

In this assay, the call recorded for `N#Cc1cccc2c1Sc1ccccc1N2` was what? inactive

Record request — test call for `COc1ccc(N2C(=O)/C(=C/c3ccc(N(CCC#N)CCC#N)cc3C)N=C2c2cc([N+](=O)[O-])ccc2Cl)cc1` inactive

Hello, I am checking results. What call was entered for `O=c1c2cc3c(cc2c2cccc4c2n1CCC4)OCO3` ? inactive

Entry O=[N+]([O-])c1cccc(C2=NN(c3ccccc3)C3c4ccccc4OCC23)c1 (stereo unspecified) : call = ? inactive

Which outcome was assigned to `c1ccc(CSC2(SCc3ccccc3)CCCC2)cc1` in this test? inactive

For CCN(CC)CCC1CCCCN1CC(=O)N1c2cc(Cl)ccc2NC(=O)CC1C (stereo unspecified) , which call appears in the assay record? inactive

Which outcome was assigned to `Cc1ncc([N+](=O)[O-])n1CCNC(=O)CCCn1ccnc1[N+](=O)[O-]` in this test? inactive

Recorded test outcome, item `CCOC(=O)NNC(=O)NC12CC3CC(CC(C3)C1)C2` inactive

For this compound, state the assay outcome: `C[C@]12CC[C@H]3[C@@H](CCC4=CC(=O)CC[C@@]43C)[C@@H]1CC[C@@H]2C(=O)COS(=O)(=O)c1ccc(Br)cc1` active

Answer briefly: the call reported for `O=C(CSc1nnc(Cc2ccccc2)o1)Nc1ccc(Cl)cc1[N+](=O)[O-]` in this assay. inactive

Outcome logged for `C=CCSC1=N/C(=C\c2ccco2)C(=O)N1CC=C` in this assay: inactive

Outcome? CSc1ccc2c(c1)C(N1CCN(C)CC1)Cc1ccccc1S2 (stereo unspecified) active

What did this assay record as the result for CC(=O)OCC1OC(OC2CC3C(C)(C)C(OC(C)=O)CC[C@]3(C)C3CCC45CC4(CC[C@H]5C(C)CC(O)C4OC4(C)C)[C@]23C)C(O)C(O)C1O (stereo partly specified) ? active

Status in this test for `Cc1cnc(/N=c2\sc(C)cn2-c2ncc(C)s2)s1` ? inactive

What is the recorded call for this compound in the test? `COc1ccccc1-c1cc(O)c2cccnc2n1` inactive

What classification did `CCOC(=O)c1c(N2CCCC2)[nH]c(=O)c(C(c2ccc(OC)cc2)c2c(O)c(C(=O)OCC)c(N3CCCC3)[nH]c2=O)c1O` end up with in this test? inactive

GET /call?item= CCCCCCCCCCCCCCCCCCNc1ccn(C2OC(CO)C(OP(=O)(O)OCC3CCC(n4ccc(N)nc4=O)O3)C2O)c(=O)n1 (stereo unspecified) returns the recorded outcome of this test. inactive

I'd appreciate the recorded outcome for COC(=O)C(Cc1c(C2Nc3ccccc3C2CC(NC(=O)CNC(C)=O)C(=O)OC)[nH]c2ccccc12)NC(=O)CNC(C)=O (stereo unspecified) from this test. inactive

Lab log entry: `COc1ccc2c(c1)CCc1cc(C(N)=O)c3nnnn3c1-2` — outcome as called in the assay? inactive

Each recorded value in this set is attributed to ChEMBL document CHEMBL1201862.
